Data origin: ChEMBL document CHEMBL4825757

- Measured target: MAP kinase-interacting serine/threonine-protein kinase 2 (Homo sapiens, UniProt Q9HBH9)
- Sequence (Q9HBH9 whole entry): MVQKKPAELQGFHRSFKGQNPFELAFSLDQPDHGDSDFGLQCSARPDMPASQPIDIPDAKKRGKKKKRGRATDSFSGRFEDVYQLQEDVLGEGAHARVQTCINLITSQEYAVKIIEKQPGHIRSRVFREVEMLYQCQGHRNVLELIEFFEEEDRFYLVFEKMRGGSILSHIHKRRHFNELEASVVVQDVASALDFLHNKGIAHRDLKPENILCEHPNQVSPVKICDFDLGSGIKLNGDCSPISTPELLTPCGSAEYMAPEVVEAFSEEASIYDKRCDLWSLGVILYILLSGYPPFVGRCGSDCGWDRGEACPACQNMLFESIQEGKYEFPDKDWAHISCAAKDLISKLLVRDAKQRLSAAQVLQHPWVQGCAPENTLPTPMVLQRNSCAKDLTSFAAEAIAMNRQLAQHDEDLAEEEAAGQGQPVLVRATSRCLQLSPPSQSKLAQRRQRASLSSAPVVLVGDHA
- Assay: Inhibition of MKN2 (unknown origin) in presence of ATP by HTRF assay
pIC50: −log10 of the molar value.
Parameter threshold = 7. Response is Condition met when pIC50 meets or exceeds it, else Condition not met.

Incoming: Entry `Cc1c(C(=O)N2CCNCC2)oc2ccc(Nc3ncnc4ccc(Cl)nc34)cc12` : is its pIC50 no less than 7?
Outgoing: Condition not met

Incoming: Entry `CC(C)Oc1cc(F)ccc1Nc1ncnc2ccc(-c3ccc(C(=O)N4CCNCC4)cc3)nc12` : is its pIC50 no less than 7?
Outgoing: Condition met

Incoming: Entry `Cc1c(C(=O)N2CCOCC2)oc2ccc(Nc3ncnc4ccc(Cl)nc34)cc12` : is its pIC50 no less than 7?
Outgoing: Condition not met

Incoming: Entry `CNC(=O)c1ccc(-c2ccc3ncnc(Nc4ccccc4)c3n2)cc1` : is its pIC50 no less than 7?
Outgoing: Condition met

Incoming: Entry `COC(=O)c1cccc(C#Cc2ccccc2Nc2ncnc3ccc(Cl)nc23)c1` : is its pIC50 no less than 7?
Outgoing: Condition not met

Incoming: Entry `O=C(c1ccc(-c2ccc3ncnc(Nc4ccc(F)cc4)c3n2)cc1)N1CCNCC1` : is its pIC50 no less than 7?
Outgoing: Condition met
